- assayed-target: KRAS G12V (Homo sapiens (Human), UniProt P01116+P62937, G12V)
- Sequence (P01116-2 other isoform, or with tags, fused parts or gaps G12V, one chain of several): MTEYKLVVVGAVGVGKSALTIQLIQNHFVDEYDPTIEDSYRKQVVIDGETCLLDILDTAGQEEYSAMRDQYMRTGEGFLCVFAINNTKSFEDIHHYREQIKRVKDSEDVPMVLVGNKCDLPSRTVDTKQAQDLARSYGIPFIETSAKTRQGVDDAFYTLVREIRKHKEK
- assay-explanation: Ras-Raf (BRAF RBD) disruption / FRET / MOA assay, KRAS G12V
- Format: biochemical
- test-context: read-out: IC50* KRAS G12V FRET data
- Method: The purpose of this biochemical assay is to measure the ability of test compounds to facilitate ternary complex formation between a nucleotide-loaded Ras isoform and cyclophilin A; the resulting ternary complex disrupts binding to a BRAF^RBD construct, inhibiting Ras signaling through a RAF effector. Compound is present in plate wells as a 10-point 3-fold dilution series starting at a final concentration of 30 μM. […]
Recorded IC50 for the following molecules

C=CC(=O)N1CC[C@@]2(C1)OCN([C@H](C(=O)N[C@H]1Cc3cccc(c3)-c3ccc4c(c3)c(c(-c3cccnc3[C@H](C)OC)n4CC)CC(C)(C)COC(=O)[C@@H]3CCCN(N3)C1=O)C(C)C)C2=O (atropisomer, axis not shown); 1 to 10 µM

Lookup result for C=CC(=O)Nc1cnc(C(=O)N(C)[C@H](C(=O)N[C@H]2Cc3cccc(c3)-c3ccc4c(c3)c(c(-c3cccnc3[C@H](C)OC)n4CC)CC(C)(C)COC(=O)[C@@H]3CCCN(N3)C2=O)C(C)C)n1C (atropisomer, axis not shown) [Example A524] ; measured IC50: > 10 µM

Briefly, IC50 measured for C=CC(=O)N1CC[C@H](C(=O)N(C)[C@H](C(=O)N[C@H]2Cc3cccc(c3)-c3ccc4c(c3)c(c(-c3cccnc3[C@H](C)OC)n4CC)CC(C)(C)COC(=O)[C@@H]3CCCN(N3)C2=O)[C@@H](C)C(F)(F)F)C1 (atropisomer, axis not shown) : 1 to 10 µM

Looking up C=CC(=O)N1CC2(C1)OCCCN2C(=O)N(C)[C@H](C(=O)N[C@H]1Cc2nc(cs2)-c2ccc3c(c2)c(c(-c2cccnc2[C@H](C)OC)n3CC)CC(C)(C)COC(=O)[C@@H]2CCCN(N2)C1=O)C(C)C (atropisomer, axis not shown) , I see its IC50 listed as > 10 µM

###

- assayed-target: KRAS G12V (Homo sapiens (Human), UniProt P01116+P62937, G12V)
- assay-explanation: Ras-Raf (BRAF RBD) disruption / FRET / MOA assay, KRAS G12V
- Format: biochemical
- test-context: read-out: IC50* KRAS G12V FRET data
assay-metric: IC50

CCn1c(-c2cccnc2[C@H](C)OC)c2c3cc(ccc31)-c1cccc(c1)C[C@H](NC(=O)[C@H](C(C)C)N1CC[C@]3(CCN(C(=O)C#C[C@@H]4COCCN4C)C3)C1=O)C(=O)N1CCC[C@H](N1)C(=O)OCC(C)(C)C2 (atropisomer, axis not shown) [Example A569]; > 10 µM

Notebook: C=CC(=O)N1CCN(C(=O)N(C)[C@H](C(=O)N[C@H]2Cc3nc(cs3)-c3ccc4c(c3)c(c(-c3cccnc3[C@H](C)OC)n4CC)CC(C)(C)COC(=O)[C@@H]3CCCN(N3)C2=O)C(C)C)[C@@H]2CC[C@@H]21 (atropisomer, axis not shown) [Example A718] , IC50 read as 0.1 to 1 µM

###

Measured IC50 of individual entries
- assayed-target: KRAS G12D (Homo sapiens (Human), UniProt P01116+P62937, G12D)
- Sequence (P01116-2 other isoform, or with tags, fused parts or gaps G12D, one chain of several): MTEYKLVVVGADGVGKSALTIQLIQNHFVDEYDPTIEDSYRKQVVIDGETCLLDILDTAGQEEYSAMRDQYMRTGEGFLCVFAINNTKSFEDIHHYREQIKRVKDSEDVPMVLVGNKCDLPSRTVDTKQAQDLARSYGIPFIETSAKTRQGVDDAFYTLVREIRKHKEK
- assay-explanation: Ras-Raf (BRAF RBD) disruption / FRET / MOA assay, KRAS G12D
- Assay type: biochemical
- test-context: Ras-Raf disruption/FRET/MOA assay; class symbols; read-out: KRAS G12D FRET data IC50

Item: CO[C@@H](C)c1ncccc1-c1c2c3cc(ccc3n1CC(F)(F)F)N1CCO[C@@H](C[C@H](NC(=O)[C@H](C(C)C)N3CC[C@]4(CCN(C(=O)C#CC(C)(C)N(C)C)C4)C3=O)C(=O)N3CCC[C@H](N3)C(=O)OCC(C)(C)C2)C1 (atropisomer, axis not shown) | IC50: > 10 µM

IC50 recorded for this compound, CCn1c(-c2cccnc2[C@H](C)OC)c2c3cc(ccc31)-c1cc(O)cc(c1)C[C@H](NC(=O)[C@H](C(C)C)N(C)C(=O)[C@H]1CCN(C(=O)C#CCN3[C@@H](C)COC[C@@H]3C)C1)C(=O)N1CCC[C@H](N1)C(=O)OCC(C)(C)C2 (atropisomer, axis not shown) , is 1 to 10 µM

Recorded result, CCn1c(-c2cccnc2[C@H](C)OC)c2c3cc(ccc31)-c1csc(n1)C[C@H](NC(=O)[C@H](C(C)C)N(C)C(=O)N1CCC3(CC1)CN(C(=O)/C=C/CF)C3)C(=O)N1CCC[C@H](N1)C(=O)OCC(C)(C)C2 (atropisomer, axis not shown) , IC50: 0.1 to 1 µM

Recorded IC50 (compound CO[C@@H](C)c1ncccc1-c1c2c3cc(ccc3n1CC(F)(F)F)-c1nc(ns1)C[C@H](NC(=O)[C@@H](COC1CN(C(=O)C#CC(C)(C)N(C)C)C1)C(C)C)C(=O)N1CCC[C@H](N1)C(=O)OCC(C)(C)C2 (atropisomer, axis not shown) ): > 10 µM

###

Listing: IC50 of selected molecules
- assayed-target: K-Ras G12C (Homo sapiens (Human), UniProt P01116+P62937, G12C)
- Sequence (P01116-2 other isoform, or with tags, fused parts or gaps G12C): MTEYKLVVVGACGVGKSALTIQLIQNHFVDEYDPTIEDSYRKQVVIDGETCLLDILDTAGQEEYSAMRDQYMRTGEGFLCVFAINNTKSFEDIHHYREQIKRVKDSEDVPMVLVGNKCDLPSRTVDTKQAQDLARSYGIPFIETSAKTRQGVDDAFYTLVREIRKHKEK
- Sequence (P62937 whole entry): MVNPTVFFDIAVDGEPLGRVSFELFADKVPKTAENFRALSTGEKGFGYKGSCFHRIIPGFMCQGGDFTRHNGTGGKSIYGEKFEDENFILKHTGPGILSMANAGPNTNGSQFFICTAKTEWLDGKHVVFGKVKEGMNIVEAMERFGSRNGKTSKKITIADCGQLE
- assay-explanation: Ras-Raf (BRAF RBD) disruption / FRET / MOA assay, KRAS G12C
- Format: biochemical
- test-context: IC50* KRAS G12C FRET data, KRAS G12C; Ras-Raf disruption/FRET/MOA assay

Some solved entries appear below for comparison.
C=CC(=O)N1CC[C@H](C(=O)N(C)[C@H](C(=O)N[C@H]2Cc3cc(O)cc(c3)-c3ccc4c(c3)c(c(-c3ncn(C)c3[C@H](C)OC)n4CC)CC(C)(C)COC(=O)[C@@H]3CCCN(N3)C2=O)C(C)C)C1 [Example A301]; 0.1 to 1 µM
C=CC(=O)N1CCO[C@H]2CN(C(=O)N(C)[C@H](C(=O)N[C@H]3Cc4cc(C(F)F)cc(n4)-c4ccc5c(c4)c(c(-c4cccnc4[C@H](C)OC)n5CC(F)(F)F)CC(C)(C)COC(=O)[C@@H]4CCCN(N4)C3=O)C(C)C)C[C@H]21 (atropisomer, axis not shown) [Example A540]; 0.1 to 1 µM
CCn1c(-c2cccnc2[C@H](C)OC)c2c3cc(ccc31)-c1cccc(c1)C[C@H](NC(=O)[C@H](C(C)C)N1CC[C@@]3(CCN(C(=O)C#C[C@@H]4COCCN4C)C3)C1=O)C(=O)N1CCC[C@H](N1)C(=O)OCC(C)(C)C2 (atropisomer, axis not shown) [Example A549]; < 0.01 µM

Kindly note the recorded IC50 for C=CC(=O)N1CC(CN2C(=O)O[C@H](C)[C@H]2C(=O)N[C@H]2Cc3cccc(c3)-c3ccc4c(c3)c(c(-c3cccnc3[C@H](C)OC)n4CC)CC(C)(C)COC(=O)[C@@H]3CCCN(N3)C2=O)C1 (atropisomer, axis not shown) [Example A460] , which is 1 to 10 µM

// field: IC50; key: CCn1c(-c2cccnc2[C@H](C)OC)c2c3cc(ccc31)-c1cc(O)cc(c1)C[C@H](NC(=O)[C@H](C(C)C)N(C)C(=O)[C@H]1CCN(S(=O)(=O)C=C(C)C)C1)C(=O)N1CCC[C@H](N1)C(=O)OCC(C)(C)C2 (atropisomer, axis not shown) [Example A305] ; value = 0.01 to 0.1 µM

###

- assayed-target: KRAS G12V (Homo sapiens (Human), UniProt P01116+P62937, G12V)
- assay-explanation: Ras-Raf (BRAF RBD) disruption / FRET / MOA assay, KRAS G12V
- Type: biochemical
- test-context: read-out: IC50* KRAS G12V FRET data
- Experimental: The purpose of this biochemical assay is to measure the ability of test compounds to facilitate ternary complex formation between a nucleotide-loaded Ras isoform and cyclophilin A; the resulting ternary complex disrupts binding to a BRAF^RBD construct, inhibiting Ras signaling through a RAF effector. Compound is present in plate wells as a 10-point 3-fold dilution series starting at a final concentration of 30 μM. […]
pIC50: −log10 of the molar value.
assay-metric: pIC50

CCn1c(-c2cccnc2[C@H](C)OC)c2c3cc(ccc31)-c1cccc(n1)C[C@H](NC(=O)[C@H](C(C)C)N(C)C(=O)N1CCC13CN(C(=O)C#CC(C)(C)N(C)C)C3)C(=O)N1CCC[C@H](N1)C(=O)OCC(C)(C)C2 (atropisomer, axis not shown); 5.00 to 6.00
C=CC(=O)N1C[C@@H]2CN(C(=O)N(C)[C@H](C(=O)N[C@H]3Cc4nc(cs4)-c4ccc5c(c4)c(c(-c4cccnc4[C@H](C)OC)n5CC)CC(C)(C)COC(=O)[C@@H]4CCCN(N4)C3=O)C(C)C)C[C@@H]2C1 (atropisomer, axis not shown); 7.00 to 8.00

The molecule C=CC(=O)N1CCOC2(CCN(C(=O)N(C)[C@H](C(=O)N[C@H]3Cc4nsc(n4)-c4ccc5c(c4)c(c(-c4cccnc4[C@H](C)OC)n5CC)CC(C)(C)COC(=O)[C@@H]4CCCN(N4)C3=O)C(C)C)CC2)C1 (atropisomer, axis not shown) , tested on KRAS G12V (Homo sapiens (Human), UniProt P01116+P62937, G12V), showed pIC50 of 6.00 to 7.00

Value (pIC50, KRAS G12V (Homo sapiens (Human), UniProt P01116+P62937, G12V)) for record `CCn1c(-c2cccnc2[C@H](C)OC)c2c3cc(ccc31)-c1cccc(c1)C[C@H](NC(=O)[C@H](C(C)C)N(C)C(=O)[C@H]1CCN(C(=O)C#C[C@@H]3COCCN3C)C1)C(=O)N1CCC[C@H](N1)C(=O)OCC(C)(C)C2` = 5.00 to 6.00

// pIC50 (KRAS G12V (Homo sapiens (Human), UniProt P01116+P62937, G12V)) for `C=CC(=O)N1CC[C@@H](C(=O)N(C)[C@H](C(=O)N[C@H]2Cc3cc(O)cc(c3)-c3ccc4c(c3)c(c(-c3cncnc3)n4CC)CC(C)(C)COC(=O)[C@@H]3CCCN(N3)C2=O)C(C)C)O1` = 5.00 to 6.00

// pIC50 (KRAS G12V (Homo sapiens (Human), UniProt P01116+P62937, G12V)) for C=CC(=O)N1CC[C@H](C(=O)N(C)[C@H](C(=O)N[C@H]2Cc3nc(ns3)-c3ccc4c(c3)c(c(-c3cccnc3[C@H](C)OC)n4CC)CC(C)(C)COC(=O)[C@@H]3CCCN(N3)C2=O)C(C)C)C1 (atropisomer, axis not shown) = < 5.00

The reported pIC50 value, KRAS G12V (Homo sapiens (Human), UniProt P01116+P62937, G12V), for C=CC(=O)N(C)[C@@H]1C[C@H]1N(C)C(=O)N(C)[C@H](C(=O)N[C@H]1Cc2nc(cs2)-c2ccc3c(c2)c(c(-c2cccnc2[C@H](C)OC)n3CC)CC(C)(C)COC(=O)[C@@H]2CCCN(N2)C1=O)C(C)C (atropisomer, axis not shown) reads 5.00 to 6.00

Record `C=CC(=O)N(C)CC(=O)N(C)[C@H](C(=O)N[C@H]1Cc2cc(O)cc(c2)-c2ccc3c(c2)c(c(-c2cccnc2COC)n3CC)CC(C)(C)COC(=O)[C@@H]2CCCN(N2)C1=O)C(C)C` / KRAS G12V (Homo sapiens (Human), UniProt P01116+P62937, G12V), pIC50 recorded as 6.00 to 7.00
